READOUT: melting point

>  <MOLECULE>
CC(=O)N1CCCC(Nc2nc(C)ccc2-c2cnc3[nH]cc(Cl)c3n2)C1 (stereo not shown) [Example I-39]

>  <READOUT>
melting point

>  <ENDPOINT_RESULT>
254 to 259 °C

$$$$
>  <MOLECULE>
O=S(=O)(CC1CC1)N1CCC[C@H](Nc2ncccc2-c2cnc3[nH]ccc3n2)C1 [Example I-38]

>  <READOUT>
melting point

>  <ENDPOINT_RESULT>
209 to 212 °C

$$$$
>  <MOLECULE>
CC(C)S(=O)(=O)N1CC[C@@H](Nc2ncccc2-c2cnc3[nH]ccc3n2)C1 [Example I-18]

>  <READOUT>
melting point

>  <ENDPOINT_RESULT>
187 to 189 °C

$$$$
>  <MOLECULE>
COC(=O)N1CCCCC(Nc2ncccc2-c2cnc3[nH]ccc3n2)C1 (stereo not shown) [Example I-13]

>  <READOUT>
melting point

>  <ENDPOINT_RESULT>
90 to 100 °C

$$$$
>  <MOLECULE>
CS(=O)(=O)N1CC[C@H](Nc2ncccc2-c2cnc3[nH]ccc3n2)C1 [Example I-11]

>  <READOUT>
melting point

>  <ENDPOINT_RESULT>
222 to 224 °C

$$$$
>  <MOLECULE>
Cc1ccc(-c2cnc3[nH]ccc3n2)c(NC2CCCN(S(=O)(=O)CC(C)(C)C)C2)n1 (stereo not shown) [Example I-36]

>  <READOUT>
melting point

>  <ENDPOINT_RESULT>
218 to 220 °C

$$$$
>  <MOLECULE>
FC(F)(F)CN1CCC[C@H](Nc2ncccc2-c2cnc3[nH]ccc3n2)C1 [Example I-33]

>  <READOUT>
melting point

>  <ENDPOINT_RESULT>
207 to 209 °C

$$$$
>  <MOLECULE>
CCCC(=O)N1CC[C@@H](Nc2ncccc2-c2cnc3[nH]ccc3n2)C1 [Example I-21]

>  <READOUT>
melting point

>  <ENDPOINT_RESULT>
115 to 120 °C

$$$$

Hi there! I need melting point for each item below, if you can.
1. CC(=O)N1CCCCC(Nc2ncccc2-c2cnc3[nH]ccc3n2)C1 (stereo not shown) [Example I-12]
2. CCCS(=O)(=O)N1C[C@@H](C)C[C@H](Nc2ncccc2-c2cnc3[nH]ccc3n2)C1 [Example I-25]
3. CCS(=O)(=O)N1CC[C@@H](Nc2ncccc2-c2cnc3[nH]ccc3n2)C1 [Example I-16]
4. CCS(=O)(=O)N1CCCC(Nc2nc(C)ccc2-c2cnc3[nH]ccc3n2)C1 (stereo not shown) [Example I-34]
5. CCC(=O)N1CC[C@@H](Nc2ncccc2-c2cnc3[nH]ccc3n2)C1 [Example I-20]
6. CC(C)CCS(=O)(=O)N1CC[C@@H](Nc2ncccc2-c2cnc3[nH]ccc3n2)C1 [Example I-27]

Result:
100 to 110 °C
178 to 180 °C
230 to 232 °C
204 to 207 °C
105 to 110 °C
160 to 162 °C

Below is a list of molecules. For each, state its recorded melting point.
1. COC(=O)N1CC[C@H](Nc2ncccc2-c2cnc3[nH]ccc3n2)C1 [Example I-10]
2. COC(=O)N1CC[C@@H](Nc2ncccc2-c2cnc3[nH]ccc3n2)C1 [Example I-4]
3. CS(=O)(=O)N1CCCCC(Nc2ncccc2-c2cnc3[nH]ccc3n2)C1 (stereo not shown) [Example I-14]

Result:
1. 222 to 225 °C
2. 221 to 224 °C
3. 213 to 216 °C

###

Please respond with reported melting point for every item in the list.

Consider the reported melting point for these compounds:
>  <COMPOUND>
CS(=O)(=O)N1CCCC(Nc2ncccc2-c2cnc3[nH]ccc3n2)CC1 (centres unmarked) [Example I-37]

>  <ENDPOINT_RESULT>
215 to 217 °C

$$$$
>  <COMPOUND>
Cc1ccc(-c2cnc3[nH]ccc3n2)c(NC2CCCN(S(C)(=O)=O)C2)n1 (centres unmarked) [Example I-31]

>  <ENDPOINT_RESULT>
253 to 255 °C

$$$$
>  <COMPOUND>
CC(C)CS(=O)(=O)N1CC[C@@H](Nc2ncccc2-c2cnc3[nH]ccc3n2)C1 [Example I-19]

>  <ENDPOINT_RESULT>
134 to 137 °C

$$$$
>  <COMPOUND>
CCCS(=O)(=O)N1CC[C@@H](Nc2ncccc2-c2cnc3[nH]ccc3n2)C1 [Example I-17]

>  <ENDPOINT_RESULT>
198 to 200 °C

$$$$

Now for another entry.
Problem: Consider the compound shown here: CS(=O)(=O)N1CC[C@@H](Nc2ncccc2-c2cnc3[nH]ccc3n2)C1 [Example I-5] What is its recorded melting point?
Result: 224 to 226 °C
